Data origin, for the record: ChEMBL document CHEMBL1146100

Molecular target: GABA A receptor alpha-2/beta-2/gamma-2 (Rattus norvegicus, UniProt P18508+P23576+P63138)
Sequence (P18508 whole entry): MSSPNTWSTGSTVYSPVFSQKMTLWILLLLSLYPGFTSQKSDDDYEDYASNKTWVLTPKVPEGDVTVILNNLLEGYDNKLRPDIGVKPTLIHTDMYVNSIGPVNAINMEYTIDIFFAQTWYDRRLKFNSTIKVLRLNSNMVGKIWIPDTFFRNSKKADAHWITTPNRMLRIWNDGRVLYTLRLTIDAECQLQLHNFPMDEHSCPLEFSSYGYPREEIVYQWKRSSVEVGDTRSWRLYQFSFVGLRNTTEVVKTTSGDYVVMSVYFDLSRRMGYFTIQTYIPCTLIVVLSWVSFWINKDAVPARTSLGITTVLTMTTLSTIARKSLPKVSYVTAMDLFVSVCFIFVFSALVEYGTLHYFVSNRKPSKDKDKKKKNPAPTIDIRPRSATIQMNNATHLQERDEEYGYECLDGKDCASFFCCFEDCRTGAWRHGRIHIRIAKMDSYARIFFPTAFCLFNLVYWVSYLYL
Sequence (P23576 whole entry): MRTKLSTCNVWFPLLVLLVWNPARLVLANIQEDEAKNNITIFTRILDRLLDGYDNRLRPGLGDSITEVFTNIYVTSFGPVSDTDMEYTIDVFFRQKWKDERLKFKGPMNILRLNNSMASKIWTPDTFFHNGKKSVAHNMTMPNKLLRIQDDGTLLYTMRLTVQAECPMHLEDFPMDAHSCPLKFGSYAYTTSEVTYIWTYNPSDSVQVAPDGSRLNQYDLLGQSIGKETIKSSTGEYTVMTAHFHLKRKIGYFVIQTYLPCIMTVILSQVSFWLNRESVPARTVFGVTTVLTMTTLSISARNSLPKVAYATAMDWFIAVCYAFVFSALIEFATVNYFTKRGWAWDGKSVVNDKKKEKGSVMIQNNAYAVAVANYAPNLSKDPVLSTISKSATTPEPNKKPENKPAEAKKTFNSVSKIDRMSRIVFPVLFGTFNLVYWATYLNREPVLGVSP
Sequence (P63138 whole entry): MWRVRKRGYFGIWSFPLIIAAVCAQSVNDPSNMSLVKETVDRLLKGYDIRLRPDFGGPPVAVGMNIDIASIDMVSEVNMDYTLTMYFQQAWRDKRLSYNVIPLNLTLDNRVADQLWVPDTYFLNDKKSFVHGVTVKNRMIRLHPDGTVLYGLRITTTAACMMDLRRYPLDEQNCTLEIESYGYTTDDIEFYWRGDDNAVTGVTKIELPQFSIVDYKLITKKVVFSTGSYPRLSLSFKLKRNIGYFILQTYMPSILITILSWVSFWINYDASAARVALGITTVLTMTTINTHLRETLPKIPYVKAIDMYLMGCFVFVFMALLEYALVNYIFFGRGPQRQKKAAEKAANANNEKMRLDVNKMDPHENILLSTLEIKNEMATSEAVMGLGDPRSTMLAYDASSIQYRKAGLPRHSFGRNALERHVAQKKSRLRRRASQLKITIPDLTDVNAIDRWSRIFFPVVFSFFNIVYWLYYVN
Assay: Displacement of [3H]flumazenil from rat GABA-Aalpha2 receptor plus beta-2-gamma-2 in HEK293 cells
MEASURED ATTRIBUTE: Ki (µM)
Write the number in µM without appending the unit.

Ki value, target or system GABA A receptor alpha-2/beta-2/gamma-2 (Rattus norvegicus, UniProt P18508+P23576+P63138), for `O=C(NCc1ccc[nH]1)C(=O)c1c[nH]c2ccc([N+](=O)[O-])cc12` : 0.585

Ki value, target or system GABA A receptor alpha-2/beta-2/gamma-2 (Rattus norvegicus, UniProt P18508+P23576+P63138), for `O=C(NCc1ccoc1)C(=O)c1c[nH]c2ccc([N+](=O)[O-])cc12` : 0.236

Ki value, target or system GABA A receptor alpha-2/beta-2/gamma-2 (Rattus norvegicus, UniProt P18508+P23576+P63138), for `O=C(NCc1cc[nH]c1)C(=O)c1c[nH]c2ccc([N+](=O)[O-])cc12` : 0.154

Ki value, target or system GABA A receptor alpha-2/beta-2/gamma-2 (Rattus norvegicus, UniProt P18508+P23576+P63138), for `O=C(NCc1ccco1)C(=O)c1c[nH]c2ccc([N+](=O)[O-])cc12` : 0.155
